assay: qHTS assay to identify small molecule agonists of the vitamin D receptor (VDR) signaling pathway - cell viability counter screen (AID 743224); conditions: VDR-bla HEK293T viability, CellTiter-Glo luminescence, 16 h; series mostly up to 62.6 µM; note: nearly all actives have a fitted effect of over 50% in size
Inconclusive results are not listed. The source made the active and inactive calls. Calls come from the whole dose curve; as a rule, active = well fitted cell-killing curve with a large enough effect in the repeat runs; inconclusive = weak or mixed curves, or effect the other way; inactive = no such curve, though single readings can be large or run the other way.
Outcome codes: 1.0 = active, 0.0 = inactive

CN(C)CCCN1c2ccccc2CCc2ccccc21 : 0.0
O=Cc1ccc(F)cc1 : 0.0
CC1CCCNC1 (centres undefined) : 1.0
Cc1cc2c(C(C)C)c(O)c(O)c(C=O)c2c(O)c1-c1c(C)cc2c(C(C)C)c(O)c(O)c(C=O)c2c1O : 1.0
CN(C)c1ccc(N=Nc2ccccc2C(=O)O)cc1 : 0.0
CC(COC(=O)c1ccccc1)OC(=O)c1ccccc1 (centres undefined) : 0.0
COCC(=O)O[C@]1(CCN(C)CCCc2nc3ccccc3[nH]2)CCc2cc(F)ccc2[C@@H]1C(C)C : 1.0
NCCCCCCNCCCCCCN : 0.0
CCCCCCCCCCCCN(CCO)CCO : 1.0

----------
assay: Human pregnane X receptor (PXR) small molecule agonists, qHTS cell viability counter screen (AID 1346977); settings: PXR-Luc HepG2 viability, CellTiter-Fluor, 24 h; series mostly up to 92.4 µM; note: nearly all actives have a fitted effect of over 50% in size; note: potency is the fitted concentration of half-maximal effect
Results filed as inconclusive are left out. The source made the active and inactive calls. Calls come from the whole dose curve; as a rule, active = well fitted cell-killing curve with a large enough effect in the repeat runs; inconclusive = weak or mixed curves, or effect the other way; inactive = flat fitted curve, though single readings scatter.
readout name: Potency

C[C@@]12C(=O)OC(=O)[C@]1(C)C1CCC2O1 : 0.266 µM (active)
CCCC(O)C(O)CO (configuration not stated) : inactive
Cc1cnccn1 : inactive
COc1nccnc1CC(C)C : inactive
C(=C/c1ccccc1)/c1ccccc1 : inactive
CCc1c(C(=O)O)c(=O)cnn1-c1ccc(Cl)cc1 : inactive
CC(C)c1ccc(O)c(C(C)C)c1 : inactive
O=C(NO)c1ccccc1 : inactive
COc1ccc(C#N)cc1 : inactive
CCCCOCC : inactive
c1cc2c3c(c1)ccc1cccc(c13)C2 : inactive
CCCCOC(=O)C(C)CC (configuration not stated) : inactive
CCOCOCC : inactive
CN1[C@@H]2CC[C@@H]1CC(OC(=O)C(CO)c1ccccc1)C2 (some centres not stated) : inactive
CCCOc1sc(C(=O)N2CCC(c3cc(CN)ccc3F)CC2)c(C)c1Br : 28.1 µM (active)
CCN=C1C=CC(=C(c2ccc(N(CC)CC)cc2)c2ccc(N(CC)CC)cc2)c2ccccc21 : 0.682 µM (active)
CC(=O)Oc1ccc(C2(c3ccc(OC(C)=O)cc3)C(=O)Nc3ccccc32)cc1 : inactive

----------
assay: Caspase-3/7 induction in CHO-K1 cells by small molecules, qHTS cell viability counter screen (AID 1346979); settings: CellTiter-Fluor fluorescence, 17 h; series mostly up to 92.4 µM; note: nearly all actives have a fitted effect of over 35% in size
Results filed as inconclusive are left out. Active and inactive are the calls of the source. Calls follow the shape of the dose curve; as a rule, active = well fitted cell-killing curve with a large enough effect in the repeat runs; inconclusive = weak or mixed curves, or effect the other way; inactive = no such curve, though single readings can be large or run the other way.
Outcomes: 1 (active), 0 (inactive)

CCCCCCCCCCCCN(CCO)CCO : 1
CCCC(C)CCC(C)=O (stereo unspecified) : 0
Cn1cnc2ncnc(N)c21 : 0
CC(C)CCOCCC(C)C : 0
CCc1cccc(CC)c1N(COC)C(=O)CS(=O)(=O)O : 0
C=CC(=O)OCCC#N : 1

----------
assay: A CellTox Green Cytotoxicity Assay to monitor cytotoxicity in HepG2 cells - 24 hour (AID 1224878); details: CellTox Green fluorescence; series mostly up to 76.8 µM; note: nearly all actives have a fitted effect of over 45% in size
Records with an inconclusive call do not appear. The source made the active and inactive calls. Calls follow the shape of the dose curve; as a rule, active = well fitted activation curve with a large enough effect in the repeat runs; inconclusive = weak or mixed curves; inactive = flat fitted curve, though single readings scatter.
Outcomes: active, inactive

ClC/C=C\CCl : inactive
COc1cccc(OC)c1O : inactive
CCOC(=O)C1=C(C)NC(C)=C(C(=O)OCC)C1c1ccccc1/C=C/C(=O)OC(C)(C)C : inactive
Cc1c(-c2ccc(O)cc2)n(Cc2ccc(OCCN3CCCCCC3)cc2)c2ccc(O)cc12 : active
O=C1c2c(O)ccc([N+](=O)[O-])c2C(=O)c2c([N+](=O)[O-])ccc(O)c21 : inactive
CC1CNCC(C)O1 (stereo not given) : inactive
CCO[Si](C)(C)OCC : inactive
CN1CCN(C2Cc3ccccc3Sc3ccc(Cl)cc32)CC1 (stereo not given) : active
COc1ccc(C#N)cc1 : inactive
CC(C)=CCCC(C)O (stereo not given) : inactive

These data points were gathered from PubChem BioAssay (Tox21).
